The following compounds are shown together with reported IC50 values.
- System: CCRF-CEM/VBL100
- test_details: cells
- Format: cell-based, human
- setup_conditions: Table 5; CCRF-CEM/VLB; single determinations; read-out: IC50
The response must be a number in µM with no trailing unit.

Guide cases for IC50, answers given:
- structure_smiles: "CC/C1=C/C[C@@H](/C(C)=C/c2csc(C)n2)OC(=O)C[C@H](O)C(C)(C)C(=O)[C@H](C)[C@@H](O)[C@@H](C)CCC1"
  IC50, µM: 0.077
- structure_smiles: "C/C(=C\\c1coc(C)n1)[C@@H]1C/C=C\\CCC[C@H](C)[C@H](O)[C@@H](C)C(=O)C(C)(C)[C@@H](O)CC(=O)O1"
  IC50, µM: 0.049

Lookup: # input compound: CCC[C@@]12CCC[C@H](C)[C@H](O)[C@@H](C)C(=O)C(C)(C)[C@@H](O)CC(=O)O[C@H](/C(C)=C/c3csc(C)n3)C[C@@H]1O2 ; wanted: its IC50
Found: 0.053

###

- System: CCRF-CEM/VBL100
- test_details: cells
- Assay type: cell-based, human
- setup_conditions: Table 6; single determinations; read-out: IC50
The following compounds are shown together with reported IC50 values.
The response must be a number in µM with no trailing unit.

Guide cases for IC50, answers given:
- compound: "CC(=Cc1csc(C)n1)C1CC2OC2CC=CCCCCC(C)(C)CCC(=O)O1 (stereo not drawn)"
  target_under_test: "CCRF-CEM/VBL100"
  parameter_measured: "IC50"
  recorded_measurement: 22.4
- compound: "C/C(=C\\c1csc(C)n1)C1CC2OC2CCCCC(O)C(C)C(=O)C(C)(C)C(O)CC(=O)O1 (stereo not drawn)"
  target_under_test: "CCRF-CEM/VBL100"
  parameter_measured: "IC50"
  recorded_measurement: 2.47
- compound: "CC1=CCC(C(C)=Cc2csc(C)n2)OC(=O)CC(O)C(C)(C)C(=O)C(C)C(O)C(C)CCC1 (stereo not drawn)"
  target_under_test: "CCRF-CEM/VBL100"
  parameter_measured: "IC50"
  recorded_measurement: 0.262
- compound: "C/C(=C\\c1csc(C)n1)[C@@H]1C/C=C\\CCCC[C@H](O)[C@@H](C)C(=O)C(C)(C)[C@@H](O)CC(=O)O1"
  target_under_test: "CCRF-CEM/VBL100"
  parameter_measured: "IC50"
  recorded_measurement: 5.75
- compound: "CC(=Cc1csc(C)n1)C1CC2OC2CCCCC(O)C(C)C(=O)C(C)(C)C(O)CC(=O)O1 (mixture of isomers) [8-desmethyl Mix-cis Epo]"
  target_under_test: "CCRF-CEM/VBL100"
  parameter_measured: "IC50"
  recorded_measurement: 5.95
- compound: "C/C(=C\\c1csc(C)n1)[C@@H]1C[C@H]2O[C@H]2CCCC[C@H](O)[C@@H](C)C(=O)C(C)(C)[C@@H](O)CC(=O)O1"
  target_under_test: "CCRF-CEM/VBL100"
  parameter_measured: "IC50"
  recorded_measurement: 16.5

Lookup: # input compound: CC(=Cc1csc(C)n1)C1CC=CCCCC(C)C(O)C(C)C(O)C(C)(C)C(O)CC(=O)O1 (stereo not drawn) ; wanted: its IC50
Found: 6.28

Lookup: # input compound: C/C1=C/C[C@@H](/C(C)=C/c2csc(C)n2)OC(=O)C[C@H](O)C(C)(C)C(=O)[C@H](C)[C@@H](O)[C@@H](C)CCC1 ; wanted: its IC50
Found: 0.017

Lookup: # input compound: CC(=Cc1csc(C)n1)C1CC2OC2CCCC(C)C(O)C(C)C(=O)C(C)(C)C(O)CC(=O)O1 (stereo not drawn) ; wanted: its IC50
Found: 35.2

Lookup: # input compound: C/C(=C\c1csc(C)n1)[C@@H]1C/C=C\CCC[C@H](C)[C@H](O)[C@@H](C)C(=O)C(C)(C)[C@@H](O)CC(=O)O1 ; wanted: its IC50
Found: 0.012

Lookup: # input compound: C=CC[C@H](OC(=O)C[C@H](O)C(C)(C)C(=O)[C@H](C)[C@@H](O)[C@@H](C)CCCC(=C)C)/C(C)=C/c1csc(C)n1 ; wanted: its IC50
Found: 5.63

###

- System: DC-3F hamster lung fibroblast cell line
- test_details: SRB cytotoxicity, DC-3F
- Type: cell-based
- setup_conditions: Table 1C; SRB, 72 h; read-out: IC50
Starred links: 1 amine or outer side, 2 acyl side, 3 side chain; linkers in the order of their positions; H or OH if unused. Positions of bridges follow the written chain, without caps; N, C: chain ends. Non-standard residues stand in square brackets, D forms with d. Residues, ends and D or L forms follow the SMILES beside them. Chains are numbered I, II in the order given. Actinocin(9to1) = Cc1c2oc3c(C)ccc(C(=O)[*:1])c3nc-2c(C(=O)[*:2])c(N)c1=O; NMeV = CN[C@H](C(=O)O)C(C)C; Sar = CNCC(=O)O
parameter_measured: IC50 (pM)
The response must be a number in pM with no trailing unit.

- molecule: "C/C(=C\\c1csc(C)n1)[C@@H]1C[C@@H]2O[C@]2(C)CCC[C@H](C)[C@H](O)[C@@H](C)C(=O)C(C)(C)[C@@H](O)CC(=O)O1 [Epothilone B, epothilone B]"
  IC50 (pM): 600

Proceed to the following item.
Lookup: # input molecule: Cc1c2oc3c(C)ccc(C(=O)N[C@@H]4C(=O)N[C@H](C(C)C)C(=O)N5CCC[C@H]5C(=O)N(C)CC(=O)N(C)[C@@H](C(C)C)C(=O)O[C@@H]4C)c3nc-2c(C(=O)N[C@@H]2C(=O)N[C@H](C(C)C)C(=O)N3CCC[C@H]3C(=O)N(C)CC(=O)N(C)[C@@H](C(C)C)C(=O)O[C@@H]2C)c(N)c1=O [Actinomycin D, actinomycin D] (I: T[dV]P[Sar][NMeV] / II: T[dV]P[Sar][NMeV]; ester I:1-I:C, II:1-II:C; linker I:N-II:N via Actinocin(9to1)) ; wanted: its IC50
Found: 440

###

The following compounds are shown together with reported Average Tumor Volume (T/C), Day 17 values.
- Tested on: human mammary carcinoma MX-1 xenograft
- setup_conditions: high doses: dEpoB 25, EpoB 0.6, Taxol 10, Vinblastine 0.4 mg/kg i.p. Q2D from day 7
Structures can show the parent of a compound that is named as a salt.
The response must be a number in T/C with no trailing unit.

Lookup: # input compound: CC[C@]1(O)C[C@@H]2CN(CCc3c([nH]c4ccccc34)[C@@](C(=O)OC)(c3cc4c(cc3OC)N(C)[C@H]3[C@@](O)(C(=O)OC)[C@H](OC(C)=O)[C@]5(CC)C=CCN6CC[C@]43[C@@H]65)C2)C1 [Vinblastine, Vinblastine sulfate] ; wanted: its Average Tumor Volume (T/C), Day 17
Found: 0.88

###

The following compounds are shown together with reported pIC50 values.
- System: CCRF-CEM human T-cell acute lymphoblastic leukemia cell line
- test_details: XTT cytotoxicity (cell growth inhibition), CCRF-CEM
- setup_conditions: Table 1; XTT
Units for pIC50: none; it is -log10 of a concentration expressed in mol/L.

Guide cases for pIC50, answers given:
- compound: "C/C(=C\\c1csc(C)n1)[C@@H]1C[C@@H]2O[C@]2(C)CCC[C@H](C)[C@H](O)[C@@H](C)C(=O)C(C)(C)[C@@H](O)CC(=O)O1 [Epothilone B, epothilone B]"
  pIC50: 9.40
- compound: "C/C(=C\\c1csc(C)n1)C1CC2OC2CCCCC(O)C(C)C(=O)C(C)(C)C(O)CC(=O)O1 (stereo not drawn) [#15, 8-Desmethylepothilone A]"
  pIC50: 6.36
- compound: "C/C1=C/C[C@@H](/C(C)=C/c2csc(C)n2)OC(=O)C[C@H](O)C(C)(C)C(=O)[C@H](C)[C@@H](O)[C@@H](C)CCC1 [Desoxyepothilone B, desoxyepothilone B]"
  pIC50: 8.05
- compound: "C/C(=C\\c1csc(C)n1)[C@@H]1C/C=C\\CCC[C@H](C)[C@H](O)[C@@H](C)C(=O)C(C)(C)[C@@H](O)CC(=O)O1 [Desoxyepothilone A, desoxyepothilone A]"
  pIC50: 7.66
- compound: "C/C(=C\\c1csc(C)n1)[C@@H]1C[C@@H]2O[C@@H]2CCC[C@H](C)[C@H](O)[C@@H](C)C(=O)C(C)(C)[C@@H](O)CC(=O)O1 [Epothilone A, epothilone A]"
  pIC50: 8.52

Lookup: # input compound: C/C(=C\c1csc(C)n1)[C@@H]1C/C=C\CCCC[C@H](O)[C@@H](C)C(=O)C(C)(C)[C@@H](O)CC(=O)O1 [#14, Desmethyldesoxyepothilone A] ; wanted: its pIC50
Found: 5.30

###

- Tested on: CCRF-CEM/VBL100
- test_details: cells
- Type: cell-based, human
- setup_conditions: Table 7; CEM/VBL; read-out: IC50
parameter_measured: pIC50
Units for pIC50: none; it is -log10 of a concentration expressed in mol/L.

Guide cases for pIC50, answers given:
- compound: "C=CC[C@H](OC(=O)C[C@H](O)C(C)(C)C(=O)[C@H](C)[C@@H](O)[C@@H](C)CCCC(=C)C)/C(C)=C/c1csc(C)n1"
  target_under_test: "CCRF-CEM/VBL100"
  pIC50: 5.25
- compound: "C/C(=C\\c1csc(C)n1)[C@@H]1C/C=C\\CCC[C@H](C)[C@H](O)[C@@H](C)C(=O)C(C)(C)[C@@H](O)CC(=O)O1"
  target_under_test: "CCRF-CEM/VBL100"
  pIC50: 7.92
- compound: "C/C(=C\\c1csc(C)n1)C1CC2OC2CCCCC(O)C(C)C(=O)C(C)(C)C(O)CC(=O)O1 (stereo not shown)"
  target_under_test: "CCRF-CEM/VBL100"
  pIC50: 5.61
- compound: "C/C(=C\\c1coc(C)n1)[C@@H]1C/C=C\\CCC[C@H](C)[C@H](O)[C@@H](C)C(=O)C(C)(C)[C@@H](O)CC(=O)O1"
  target_under_test: "CCRF-CEM/VBL100"
  pIC50: 7.31
- compound: "CCC[C@@]12CCC[C@H](C)[C@H](O)[C@@H](C)C(=O)C(C)(C)[C@@H](O)CC(=O)O[C@H](/C(C)=C/c3csc(C)n3)C[C@@H]1O2"
  target_under_test: "CCRF-CEM/VBL100"
  pIC50: 7.28

Lookup: # input compound: CCC/C1=C\C[C@@H](/C(C)=C/c2csc(C)n2)OC(=O)C[C@H](O)C(C)(C)C(=O)[C@H](C)[C@@H](O)[C@@H](C)CCC1 ; wanted: its pIC50
Found: 6.60

Lookup: # input compound: CCC1=CCC(C(C)=Cc2csc(C)n2)OC(=O)CC(O)C(C)(C)C(=O)C(C)C(O)C(C)CCC1 (stereo not shown) ; wanted: its pIC50
Found: 6.71

Lookup: # input compound: CC1=CCC(C(C)=Cc2csc(C)n2)OC(=O)CC(O)C(C)(C)C(=O)C(C)C(O)C(C)CCC1 (stereo not shown) ; wanted: its pIC50
Found: 6.58
